All figures here come from ChEMBL document CHEMBL4665835.

Biological target: UniProtKB P14416
Sequence (P14416 whole entry): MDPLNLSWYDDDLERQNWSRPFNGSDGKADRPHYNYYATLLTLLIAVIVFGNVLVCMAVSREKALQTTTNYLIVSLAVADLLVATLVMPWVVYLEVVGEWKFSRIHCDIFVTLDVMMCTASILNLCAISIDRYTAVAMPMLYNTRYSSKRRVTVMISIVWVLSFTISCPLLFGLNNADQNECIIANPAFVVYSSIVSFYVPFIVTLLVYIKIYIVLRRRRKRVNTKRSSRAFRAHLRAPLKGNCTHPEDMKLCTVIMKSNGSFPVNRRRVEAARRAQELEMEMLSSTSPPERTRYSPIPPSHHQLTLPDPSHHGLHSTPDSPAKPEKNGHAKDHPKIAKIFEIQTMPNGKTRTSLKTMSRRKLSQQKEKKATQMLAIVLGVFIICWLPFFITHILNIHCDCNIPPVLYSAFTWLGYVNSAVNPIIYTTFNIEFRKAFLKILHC
Decision: Ki beneath 200 nM gives class 1; Ki meeting or exceeding 200 nM gives class 0.

Example results:
1) C[C@H]1C=C(C2=Nc3cc(Cl)ccc3Nc3ccc(F)cc32)CCN1C	class 1
2) CCc1ccc2c(c1)C(C1=C[C@H](C)N(C)CC1)=Nc1ccccc1N2	class 1
3) C[C@H]1C=C(C2=Nc3cc(Cl)ccc3Nc3ccc(Cl)cc32)CCN1C	class 1

Input line: Just wondering, is Ki of `CN1CCC(C2=Nc3cc(Cl)ccc3Nc3ccccc32)=CC1(C)C` below 200 nM?
Output line: class 0

Input line: How about `C[C@H]1C=C(C2=Nc3cc(Cl)ccc3Nc3ccccc32)CCN1C` ?
Output line: class 0

Input line: How about `Cc1ccc2c(c1)N=C(C1=C[C@H](C)N(C)CC1)c1ccccc1N2` ?
Output line: class 0

Input line: How about `C[C@H]1C=C(C2=Nc3cc(Cl)ccc3Nc3ccc(C#N)cc32)CCN1C` ?
Output line: class 1

Input line: How about `COc1ccc2c(c1)C(C1=C[C@H](C)N(C)CC1)=Nc1cc(Cl)ccc1N2` ?
Output line: class 1

###

Quick reference for Drug metabolism among some compounds
Test: Drug metabolism in human hepatocyte microsome fraction assessed as GSH conjugate formation by LC-MS/MS analysis
Assay type: ADME
Settings: microsomes
Just the number in µmol/L, nothing appended.

// below: answered compounds
1. CCc1ccc2c(c1)C(C1=C[C@H](C)N(C)CC1)=Nc1cc(Cl)ccc1N2	0.53
2. Cc1ccc2c(c1)C(C1=C[C@H](C)N(C)CC1)=Nc1cc(Cl)ccc1N2	0.35

Continue with the next compound.
Input line: Given the compound `Cc1ccc2c(c1)N=C(C1=C[C@H](C)N(C)CC1)c1cc(Cl)ccc1N2` , what is its reported Drug metabolism?
Output line: 0.38
